The next entries give measured pKi for Human NPY Y5 receptors (Homo sapiens, UniProt Q15761).
Keep it numeric: pKi is minus log10 of the concentration in mol/L.

These solved cases illustrate the format of a correct answer.
CC(=O)N1CCC(N(C)C(=O)Nc2cnn(-c3cc(F)cc(F)c3)c2)CC1 | 8.80
CC(C)S(=O)(=O)N1CCC(N(C)C(=O)Nc2cnn(-c3cc(F)cc(F)c3)c2)CC1 | 8.77
CCC(=O)N1CCC(N(C)C(=O)Nc2cnn(-c3cc(F)cc(F)c3)c2)CC1 | 9.02
CN(C(=O)Nc1cnn(-c2cc(F)cc(F)c2)c1)C1CCN(C(=O)C2CC2)CC1 | 8.92

Task: Please give the measured pKi for this compound: CCS(=O)(=O)N1CCC(N(C)C(=O)Nc2cnn(-c3cc(F)cc(F)c3)c2)CC1
Result: 9.05
